# measured-on: human TPO receptor (Homo sapiens)
# Construct: expressed in transfected cells
# test-protocol: Proliferation of TPO-dependent cell line UT7/EPO-mpl, WST-8 reagent (Assay Example 5)
# Assay type: cell-based
# test-conditions: WST-8, 4 days
# From the text: Human leukemic cell line UT7/EPO-mpl was washed twice with PBS and suspended in IMDM containing 10% FBS at a cell density of 6×10^4 cells/ml. The cell suspension was transferred to a 96-well tissue culture plate (CORNING) in 100-μl aliquots. […] The formazan pigment generated was detected by measuring the absorbance at 450 nm with a 96-well microplate reader (Nihon Molecular Devices, SpectraMax 190). […]
Quick rule for you: EC50T (concentration yielding 50% of the growth observed with 10 ng/ml TPO) under 0.02 µg/mL gets t, anything else gets f.

* CC(NNC(=O)c1ccc(O)cc1O)=C1C(=O)N(c2ccc(C)c(C)c2)N=C1C(F)(F)F [compound 94] | t
* COC(=O)c1ccc(C(=O)NNC(C)=C2C(=O)N(c3ccc(Cl)nn3)N=C2C)cc1 [compound 101] | t
* CC1=NN(c2ccc3ccccc3n2)C(=O)C1=C(C)NNC(=O)c1ccc(C(=O)O)cc1 [compound 100] | f
* CC1=NN(c2ccc(C(C)(C)C)cc2)C(=O)C1=CNNC(=O)c1ccc(C(=O)O)cc1 [compound 97] | f
* COC(=O)c1ccc(C(=O)NNC(C)=C2C(=O)N(c3ccc(C(C)(C)C)cc3)N=C2C)s1 [compound 98] | f

###

# measured-on: human TPO receptor (Homo sapiens, UniProt P40238)
# Construct: expressed in transfected cells
# Sequence (P40238 26-635): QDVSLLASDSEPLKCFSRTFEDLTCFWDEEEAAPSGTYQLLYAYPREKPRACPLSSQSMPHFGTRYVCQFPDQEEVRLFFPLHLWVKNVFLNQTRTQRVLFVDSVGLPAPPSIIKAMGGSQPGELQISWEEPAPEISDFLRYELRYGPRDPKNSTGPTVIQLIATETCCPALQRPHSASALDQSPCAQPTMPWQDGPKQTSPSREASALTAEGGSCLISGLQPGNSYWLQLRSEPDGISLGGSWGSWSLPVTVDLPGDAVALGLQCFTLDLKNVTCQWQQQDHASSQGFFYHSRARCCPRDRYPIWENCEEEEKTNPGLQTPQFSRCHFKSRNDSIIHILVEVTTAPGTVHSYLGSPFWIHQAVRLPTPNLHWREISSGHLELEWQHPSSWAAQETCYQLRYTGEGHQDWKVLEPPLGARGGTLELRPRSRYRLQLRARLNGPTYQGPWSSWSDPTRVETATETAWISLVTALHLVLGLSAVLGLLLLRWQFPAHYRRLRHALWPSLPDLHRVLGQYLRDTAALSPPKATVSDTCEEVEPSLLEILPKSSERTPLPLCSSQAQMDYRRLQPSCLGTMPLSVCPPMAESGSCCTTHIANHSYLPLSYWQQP
# test-protocol: Proliferation of TPO-dependent cell line UT7/EPO-mpl, MTT method (Assay Examples 1, 3, 4)
# Assay type: cell-based
# test-conditions: UT7/EPO-mpl cells; value in the presence of 10 ng/ml TPO taken as 100% standard; method of Assay Example 1
# Protocol: The reactivity of Synthetic Example 56, the compound of the present invention, with thrombopoietin (TPO) receptor was assayed using a human leukemic cell line, UT7/EPO-mpl. UT7/EPO-mpl is a stable transformed cell line obtained by introducing into human leukemic cell line UT7/EPO a vector that induces expression of human TPO receptor (c-mp1) under control of a cytomegaloviral promoter by the method of Takatoku et al. (J. Biol. Chem., 272:7259-7263 (1997)). […]
value-kind: Efficacy (%) (maximal growth rate)

* CC1=NN(c2ccc(I)cc2)C(=O)C1=C(C)NNC(=O)c1ccc([N+](=O)[O-])cc1 | 26
* CC1=NN(c2ccc(C)c(C)c2)C(=O)C1=C(C)NNC(=O)c1ccc(C(F)(F)F)cc1 | 89
* CC1=NN(c2ccc(C(F)(F)F)cc2)C(=O)C1=C(C)NNC(=O)c1cccc(N)c1 | 81
* CC1=NN(c2ccc(C(F)(F)F)cc2)C(=O)C1=C(C)NNC(=O)c1ccc(N)cc1 | 82

###

# measured-on: human TPO receptor (Homo sapiens)
# Construct: expressed in transfected cells
# test-protocol: Proliferation of TPO-dependent cell line UT7/EPO-mpl, MTT method (Assay Examples 1, 3, 4)
# Type: cell-based
# test-conditions: UT7/EPO-mpl cells; concentration giving 50% of the maximum cell growth observed with the same compound
Reported EC50 values are given for each entry in this list.
value-kind: EC50 (ng/mL)

• CC1=NN(c2cccc([N+](=O)[O-])c2)C(=O)C1=C(C)NNC(=O)c1ccc(O)cc1O = 21
• CC1=NN(c2cccc(C(F)(F)F)c2)C(=O)C1=C(C)NNC(=O)c1cccc([N+](=O)[O-])c1 = 33
• CC1=NN(c2ccc(C(C)(C)C)cc2)C(=O)C1=C(C)NNC(=O)c1ccc(N)cc1 = 5.7
• CC1=NN(c2ccc(I)cc2)C(=O)C1=C(C)NNC(=O)c1ccc([N+](=O)[O-])cc1 = 250
• CC1=NN(c2ccccc2)C(=O)C1=C(C)NNC(=O)c1cccc([N+](=O)[O-])c1 = 72
• CC1=NN(c2ccc(C(F)(F)F)cc2)C(=O)C1=C(C)NNC(=O)c1ccc(O)c(O)c1 = 5.2
• CC1=NN(c2ccccc2)C(=O)C1=C(C)NNC(=O)c1cc2ccccc2cc1O = 55
• CC1=NN(c2ccc(C)c(C)c2)C(=O)C1=CNNC(=O)c1ccc(O)cc1O = 4.3
• CC1=NN(c2ccc(I)cc2)C(=O)C1=C(C)NNC(=O)c1ccccc1[N+](=O)[O-] = 250
• CC1=NN(c2ccc(Cl)c(Cl)c2)C(=O)C1=C(C)NNC(=O)c1cc2ccccc2cc1O = 190
• CC1=NN(c2ccc(C)c(C)c2)C(=O)C1=C(C)NNC(=O)c1cccc(C(=O)O)c1 = 280
• CC1=NN(c2ccc(C(F)(F)F)cc2)C(=O)C1=C(C)NNC(=O)c1cc2ccccc2cc1O = 37
• CC1=NN(c2ccccc2)C(=O)C1=C(C)NNC(=O)c1ccc(O)c(O)c1 = 38
• CC1=NN(c2cccc(C(F)(F)F)c2)C(=O)C1=C(C)NNC(=O)c1ccccc1O = 30
• CC1=NN(c2ccccc2)C(=O)C1=C(C)NNC(=O)c1ccc(O)cc1O = 14
• CC1=NN(c2ccc(C(C)(C)C)cc2)C(=O)C1=C(C)NNC(=O)c1cc2ccccc2cc1O = 200
• CC1=NN(c2ccc(Cl)c(Cl)c2)C(=O)C1=C(C)NNC(=O)c1ccc(O)cc1O = 7.7
• CC1=NN(c2ccc(C(C)(C)C)cc2)C(=O)C1=C(C)NNC(=O)c1ccc(C(C)(C)C)cc1 = 75
• CC1=NN(c2ccc(C)c(C)c2)C(=O)C1=C(C)NNC(=O)c1cccc(N)c1 = 25
• COC(=O)c1ccc(C(=O)NNC(C)=C2C(=O)N(c3ccc(C(C)(C)C)cc3)N=C2C)cc1 = 15
• CC1=NN(c2ccc(C)c(C)c2)C(=O)C1=C(C)NNC(=O)c1ccc(O)c(O)c1 = 5.9
• CC1=NN(c2cccc(C(F)(F)F)c2)C(=O)C1=C(C)NNC(=O)c1ccccc1[N+](=O)[O-] = 37
• CC1=NN(c2ccc(Cl)c(Cl)c2)C(=O)C1=C(C)NNC(=O)c1ccccc1O = 29
• CC1=NN(c2ccc(C(C)(C)C)cc2)C(=O)C1=C(C)NNC(=O)c1ccc(O)cc1 = 7.2
• CC1=NN(c2ccc(C(C)(C)C)cc2)C(=O)C1=C(C)NNC(=O)c1ccccc1[N+](=O)[O-] = 37
• CC1=NN(c2cccc(C(F)(F)F)c2)C(=O)C1=C(C)NNC(=O)c1ccc(N)cc1 = 21
• CC1=NN(c2ccc(I)cc2)C(=O)C1=C(C)NNC(=O)c1cc2ccccc2cc1O = 250
• CC1=NN(c2ccccc2)C(=O)C1=C(C)NNC(=O)c1ccc([N+](=O)[O-])cc1 = 190
• CC1=NN(c2ccc(C)c(C)c2)C(=O)C1=C(C)NNC(=O)c1cc2ccccc2cc1O = 220
• CC1=NN(c2ccc(I)cc2)C(=O)C1=C(C)NNC(=O)c1ccccc1O = 36
• CC1=NN(c2ccc(C)c(C)c2)C(=O)C1=C(C)NNC(=O)c1ccc(C(F)(F)F)cc1 = 63
• CC1=NN(c2ccc(C(F)(F)F)cc2)C(=O)C1=C(C)NNC(=O)c1cccc([N+](=O)[O-])c1 = 59

###

# measured-on: human TPO receptor (Homo sapiens, UniProt P40238)
# Construct: expressed in transfected cells
# Sequence (P40238 26-635): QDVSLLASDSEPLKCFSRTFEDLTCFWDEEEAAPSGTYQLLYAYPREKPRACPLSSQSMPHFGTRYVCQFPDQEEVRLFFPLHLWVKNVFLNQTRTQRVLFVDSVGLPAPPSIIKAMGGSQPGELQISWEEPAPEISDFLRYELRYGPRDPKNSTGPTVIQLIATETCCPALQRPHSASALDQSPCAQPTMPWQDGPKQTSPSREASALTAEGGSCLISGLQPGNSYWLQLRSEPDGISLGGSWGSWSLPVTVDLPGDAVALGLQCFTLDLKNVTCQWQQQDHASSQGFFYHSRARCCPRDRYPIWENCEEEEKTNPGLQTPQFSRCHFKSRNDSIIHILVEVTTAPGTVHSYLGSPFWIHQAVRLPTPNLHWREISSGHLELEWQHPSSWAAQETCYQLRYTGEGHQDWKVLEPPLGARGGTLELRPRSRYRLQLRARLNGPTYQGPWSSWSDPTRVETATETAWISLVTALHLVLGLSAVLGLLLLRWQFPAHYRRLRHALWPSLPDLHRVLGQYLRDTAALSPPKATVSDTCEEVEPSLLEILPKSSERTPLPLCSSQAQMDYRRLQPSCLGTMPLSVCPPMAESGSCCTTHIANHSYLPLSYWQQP
# test-protocol: Proliferation of TPO-dependent cell line UT7/EPO-mpl, MTT method (Assay Examples 1, 3, 4)
# Format: cell-based
# test-conditions: UT7/EPO-mpl cells; concentration giving 50% of the maximum cell growth observed with the same compound; read-out: EC50 (ng/ml) (converted)
value-kind: EC50 (nM)

* COC(=O)c1ccc(C(=O)NNC(C)=C2C(=O)N(c3cccc(C(F)(F)F)c3)N=C2C)cc1 | 67.3
* CC1=NN(c2ccc(C)c(C)c2)C(=O)C1=C(C)NNC(=O)c1cccc([N+](=O)[O-])c1 | 58.9
* CC1=NN(c2ccc(C)c(C)c2)C(=O)C1=C(C)NNC(=O)c1ccccc1O | 31.7
* CC1=NN(c2ccc(Cl)c(Cl)c2)C(=O)C1=C(C)NNC(=O)c1cccc(O)c1 | 14.5
* COC(=O)c1ccc(C(=O)NNC(C)=C2C(=O)N(c3ccc(C(F)(F)F)cc3)N=C2C)cc1 | 43.4
* COC(=O)c1ccc(C(=O)NNC(C)=C2C(=O)N(c3ccc(C)c(C)c3)N=C2C)cc1 | 17.6
* CC1=NN(c2cccc(C(F)(F)F)c2)C(=O)C1=C(C)NNC(=O)c1ccc([N+](=O)[O-])cc1 | 268
* Cc1ccc(-n2nc(C)c(C=NN3CC(=O)N(c4ccc(C(=O)O)cc4)C3=S)c2O)cc1C [Reference Synthetic Example 4, reference compound] | 3020
